Source: paper PMC6522912

Target: E. coli MurD (Escherichia coli, UniProt P14900)
Sequence (P14900 whole entry): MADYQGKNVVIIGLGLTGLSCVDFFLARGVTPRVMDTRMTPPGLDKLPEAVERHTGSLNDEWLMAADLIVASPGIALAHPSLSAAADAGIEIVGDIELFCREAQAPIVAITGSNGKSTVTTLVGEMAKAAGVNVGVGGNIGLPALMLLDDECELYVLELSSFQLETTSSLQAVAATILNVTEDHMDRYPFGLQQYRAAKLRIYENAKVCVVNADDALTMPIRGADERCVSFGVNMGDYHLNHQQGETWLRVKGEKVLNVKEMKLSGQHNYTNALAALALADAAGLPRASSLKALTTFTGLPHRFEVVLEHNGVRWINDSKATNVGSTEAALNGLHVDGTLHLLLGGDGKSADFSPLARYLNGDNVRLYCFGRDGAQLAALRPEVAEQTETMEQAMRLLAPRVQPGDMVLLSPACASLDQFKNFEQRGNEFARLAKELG
Assay: biochemical
Conditions: 0.25 h, Table S1, PKIS screening; read-out: RA [%] at 100 µM MurD
Below: a set of entries, each annotated with reported remaining activity at 100 µM.
Observed property: remaining activity at 100 µM

CNC(=O)c1ncccc1Nc1nc(Nc2cc3c(cc2OC)CCCN3C(=O)CN(C)C)nc2[nH]ccc12 [GSK2220400A] | 84%
COC(=O)Nc1nc2ccc(Oc3ccc(NC(=O)Nc4cccc(Br)c4)cc3)cc2[nH]1 [GW694234A] | 86%
CS(=O)(=O)CCNCc1ccc(-c2ccc3ncnc(Nc4ccc(OCc5cccc(C(F)(F)F)c5)cc4)c3c2)o1 [GW567808A] | 34%
FC(F)(F)c1cccc(Nc2nccc(-c3cnn4nc(-c5ccccc5)ccc34)n2)c1 [GW819077X] | 63%

---

Target: E. coli MurF (Escherichia coli, UniProt P11880)
Sequence (P11880 whole entry): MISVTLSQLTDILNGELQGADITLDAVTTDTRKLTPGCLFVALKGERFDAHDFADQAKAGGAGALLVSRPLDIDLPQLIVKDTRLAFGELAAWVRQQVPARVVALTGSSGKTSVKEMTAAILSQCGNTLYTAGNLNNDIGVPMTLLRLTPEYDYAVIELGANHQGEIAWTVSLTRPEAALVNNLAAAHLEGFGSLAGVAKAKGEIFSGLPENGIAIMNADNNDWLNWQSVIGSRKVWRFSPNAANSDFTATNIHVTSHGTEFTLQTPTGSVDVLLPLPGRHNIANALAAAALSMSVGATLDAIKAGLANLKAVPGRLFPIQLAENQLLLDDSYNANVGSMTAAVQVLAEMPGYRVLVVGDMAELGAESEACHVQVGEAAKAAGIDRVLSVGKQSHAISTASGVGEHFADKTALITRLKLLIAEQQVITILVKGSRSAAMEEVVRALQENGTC
Test: biochemical
Settings: Table S1, PKIS screening
Observed property: RA [%] at 100 µM MurF (%)

CN(C)CCOc1ccc(-c2cc(-c3ccc4c(c3)CCC4=NO)c(-c3ccncc3)o2)cc1.Cl | 57
Nc1nccc(-c2c(-c3ccc(F)cc3)ncn2C2CCNCC2)n1 [SB-220025-R#3] | 100
Cc1ccc(O)cc1Nc1ccnc2cc(-c3ccccn3)ccc12 [GW440139B] | 66
CN1CCC(C(=O)Nc2n[nH]c3nnc(-c4ccccc4)cc23)CC1.Cl | 95
CCn1c(-c2nonc2N)nc2cncc(C(=O)N3CC[C@H](N)C3)c21 | 80
Nc1nccc(-c2c(-c3ccc(F)cc3)ncn2C2CCNCC2)n1 [SB-220025-A] | 96
CN(C)CCOc1ccc(-c2nc(-c3ccncc3)c(-c3ccc4c(c3)CC/C4=N\O)[nH]2)cc1 | 100
COc1ccc(-c2cc(-c3c[nH]nc3-c3ccccn3)ccn2)cc1 [GW679410X#4] | 82
CCn1c(-c2nonc2N)nc2ccccc21 [GW549034X] | 93
Cc1cc(O)cc(Nc2ccnc3cc(-c4ccccn4)ccc23)c1 [GSK3206866A] | 29
Fc1ccc(-c2nc3n(c2-c2ccncc2)CCS3)cc1 | 97
Cl.Oc1cccc(-c2nc(-c3ccccc3)[nH]c2-c2ccncc2)c1 | 96
NC(=O)c1ccc(-c2nc(-c3ccc4c(c3)OCO4)c(-c3ccccn3)[nH]2)cc1 | 100

---

Molecular target: E. coli MurF (Escherichia coli, UniProt P11880)
Test: biochemical
Conditions: 0.25 h, Table S1, PKIS screening; read-out: RA [%] at 100 µM MurF
Reported remaining activity at 100 µM values for the following compounds.
Observed property: remaining activity at 100 µM (%)

CC1(C)CC(n2cnc(-c3ccc(F)cc3)c2-c2ccnc(N)n2)CC(C)(C)N1 | 100
COc1ccc2c(-c3ccnc(Nc4cccc(OC(F)(F)F)c4)n3)cnn2n1 [GW810372X] | 73
COc1cccc(/C=N/Nc2ncnc3c2cnn3-c2cccc(OC)c2)c1 [GW829874X] | 85
Cc1cc(-c2ccco2)cc(C)c1/C=C/c1cncc(-c2nn[nH]n2)c1 | 26
CNC(=O)c1ncccc1Nc1nc(Nc2cc3c(cc2OC)CCCN3C(=O)CN(C)C)nc2[nH]ccc12 [GSK2220400A] | 81
CS(=O)(=O)Nc1cccc(-c2ccc3c(NC(=O)C4CC4)n[nH]c3c2)c1 | 99
O=C(Nc1ccc(Oc2ccc3nc(NC(=O)c4ccccc4)[nH]c3c2)cc1)Nc1cc(C(F)(F)F)ccc1F [GW709042A] | 100
COc1cccc(-n2ncc3c(N/N=C/c4ccc(S(C)(=O)=O)cc4)ncnc32)c1 [GW811168X] | 35
